# Test system: ACHN renal
# Test: NCI tumour cell line growth inhibition, 384-well format; in the data active = GI50 below about 0.43 µM; inactive = the rest
Could you please pick one outcome from this set? active, inactive

// query Given O=[N+]([O-])c1ccc(Nc2ccccc2-c2ccccc2)c2nonc12 , state the outcome it received in this test.
// result inactive

New cases:
// query Given Cc1nc2ccc(CN(C)c3ccc(C(=O)N[C@@H](CCC(=O)O)C(=O)O)s3)cc2c(=O)[nH]1 , state the outcome it received in this test.
// result active

// query Given CC(C)[C@](O)(c1ccc2cc(OC(F)F)c(OC(F)F)cc2c1)c1cn[nH]n1 , state the outcome it received in this test.
// result inactive

// query Given CNC(=O)c1cc(COc2nnc(Nc3ccc(Cl)cc3)c3ccoc23)ccn1 , state the outcome it received in this test.
// result inactive
